# Test system: MCF7 breast
# test.protocol: NCI tumour cell line growth inhibition, 384-well format
quantity.kind: GI50

Specify reported GI50 for the compound shown: CC(C)C[C@H](NC(=O)[C@@H](NC(=O)c1cccc(-c2ccccc2)n1)[C@@H](C)O)B(O)O
0.129 µM

Specify reported GI50 for the compound shown: Cc1cc(C)c(S(=O)(=O)N(CCc2cccc(Br)c2)Cc2ccc(-c3cccc(S(C)(=O)=O)c3)cc2)c(C)c1
> 100 µM

Specify reported GI50 for the compound shown: Cn1cnc2c(F)c(Nc3ccc(Br)cc3F)c(C(=O)NOCCO)cc21
> 100 µM

Specify reported GI50 for the compound shown: C[C@@H](COCCC(=O)N1CCN(c2ncc(C(F)(F)F)cn2)CC1)Nc1cn[nH]c(=O)c1C(F)(F)F
14.5 µM
